read-out: Matrix Metallopeptidase 1 (MMP1), MMP1 (gene 4312); assay: BSK_MyoF_MMP1: BioMAP Diversity Plus: MyoF Assay for Matrix Metallopeptidase 1 (MMP1) Biomarker Activity (AID 2284268); conditions: primary human lung fibroblasts
Active and inactive are the calls of the source. The calls were made as follows: active = hit-call score of the fitted dose curve at least 0.9, where 1 is the maximum; inactive = score below 0.9.
Possible outcomes: y = active, n = inactive

COMPOUND | DISCRETE_LABEL
C=CC(=O)OCC(CC)CCCC (stereo not drawn) | n
O=[N+]([O-])C=Cc1ccccc1 | n
Nc1ccc(-c2ccc(N)c(N)c2)cc1N | n
CC(C)COP(=O)(OCC(C)C)OCC(C)C | n
Cc1ccc(OP(=O)(Oc2ccc(C)cc2)Oc2ccc(C)cc2)cc1 (tested in a mixture with another compound) | y
CC(=O)/C=C/c1ccccc1 | n
Oc1cc(Cl)ccc1Cl | n
CC(C)(C)C(O)C(Oc1ccc(-c2ccccc2)cc1)n1cncn1 (stereo not drawn) | y
